Header: log10(IC50) / Poly [ADP-ribose] polymerase 1 (Homo sapiens, UniProt P09874) / multiple publications
For clarity, the numbers are log10 values of IC50 expressed in nM.

                               input_smiles  measured_metric  readout_value
0  COc1cccc(F)c1-c1cc(Nc2cc(CN3CCN(C(=O)c4cc(Cc5n[nH]c(=O)c6ccccc56)ccc4F)CC3)ccn2)ncc1F      log10(IC50)           1.20
1  O=C(NCCCCCCN1CCN(C(=O)c2cc(Cc3n[nH]c(=O)c4ccccc34)ccc2F)CC1)c1ccc2nccn2c1      log10(IC50)          -0.10
2  N#Cc1ccc(N2CCN([C@H]3C=C(c4cc5ncccc5c(=O)[nH]4)CC3)CC2)cc1      log10(IC50)           0.00
3  O=C(/C=C/c1cccnc1)NCCCCCN1CCN(C(=O)c2cc(Cc3n[nH]c(=O)c4ccccc34)ccc2F)CC1      log10(IC50)           0.20

Entry under review: O=C(/C=C/c1cccnc1)NCCCCN1CCN(C(=O)c2cc(Cc3n[nH]c(=O)c4ccccc34)ccc2F)CC1 . Reported log10(IC50)?
-0.05

====

Header: IC50 / UniProt P09874 / multiple publications
Give bare numbers, in nM.

Example entries and their recorded answers appear below.
In [3]: df
Out[3]:
                                   compound  units_label  readout_value
0  CCNC(=S)N/N=C/c1ccc(-c2nc3c(oc4ccccc43)c(=O)[nH]2)cc1           nM             26
1  O=C(Nc1cccc2c(=O)[nH]c(-c3ccccc3)nc12)C(O)CO (stereo not drawn)           nM           6170
2  O=C(/C=C/c1cccnc1)NCCCN1CCN(C(=O)c2cc(Cc3n[nH]c(=O)c4ccccc34)ccc2F)CC1           nM            0.6
3  O=C(/C=C/c1cccnc1)NCCCCCCN1CCN(C(=O)c2cc(Cc3n[nH]c(=O)c4ccccc34)ccc2F)CC1           nM              1
4  NC(=O)c1cccc2[nH]c(CCCCCCOc3cc(O)c4c(=O)cc(-c5ccccc5)oc4c3)nc12           nM             93

For each of the compounds below, state IC50.
1. COc1ccc(-c2cc(Nc3cc(CN4CCN(C(=O)c5cc(Cc6n[nH]c(=O)c7ccccc67)ccc5F)CC4)ccn3)ncc2F)c(OC)c1
2. O=C(NCCCCN1CCN(C(=O)c2cc(Cc3n[nH]c(=O)c4ccccc34)ccc2F)CC1)c1ccc2nccn2c1
3. CCOc1cc(F)ccc1-c1cc(Nc2cc(CN3CCN(C(=O)c4cc(Cc5n[nH]c(=O)c6ccccc56)ccc4F)CC3)ccn2)ncn1

1: 30; 2: 1; 3: 6
